# System: restless legs syndrome (RLS)
# assay-remarks: clinical case studies of patients with restless legs syndrome
# Type: in vivo, human
# condition-context: Example 2, person; used in the previous 15 years
Where a name gives a salt, the structure may show the parent alone.
measurement-name: benefit in controlling the RLS, earlier treatment

Past entries and their recorded results:
>>> reported_value("CNC1=Nc2ccc(Cl)cc2C(c2ccccc2)=[N+]([O-])C1 [chlordiazepoxide HCl]")
"some benefit"
>>> reported_value("O=C(O)C1N=C(c2ccccc2)c2cc(Cl)ccc2NC1=O (centres unmarked) [clorazepate dipotassium]")
"some benefit"
>>> reported_value("CC(CN1c2ccccc2Sc2ccccc21)N(C)C (centres unmarked)")
"some benefit"
>>> reported_value("N[C@@H](Cc1ccc(O)c(O)c1)C(=O)O")
"some benefit"

// moving on: another record for benefit in controlling the RLS, earlier treatment
Just so you know, measured benefit in controlling the RLS, earlier treatment for CCCC(C)(COC(N)=O)COC(N)=O [meprobamate] came out at some benefit
